Data origin: PubChem BioAssay (NCI)

# System: HOP-62 NSCLC
# assay_text: NCI tumour cell line growth inhibition, 48 h
A collection of compounds and their measured TGI
Your answer is read as µM, so omit the unit and give the number.

Use the examples below as a reference point.
{"compound": "CC1=C(C)Cc2c(O)ccc(O)c2C1", "experimental_value": 50.1}
{"compound": "CCOC(=O)c1c2c(n3ccccc13)C(=O)c1ncccc1C2=O", "experimental_value": 8.86}

The recorded TGI for entry O=C1C(Cl)=C(NCc2ccco2)C(=O)c2ccccc21 equals 43.6

// TGI value for CC(=O)O[C@H]1[C@H](OC(=O)CC(C)(O)CC(=O)O)C[C@]2(C)C3=C(CCC2C1(C)C)[C@]1(C)CC[C@H]([C@H]2CC[C@H](C(C)(C)O)OC2O)[C@@]1(C)[C@@H](O)C3 (stereo partly drawn) : 32.7

The measured TGI associated with O=C1C(Cl)=C(Nc2ccc(S(=O)(=O)Nc3ccccn3)cc2)C(=O)c2ccccc21 reads 29.9

Lookup result for CCCCCCCCCCCCC(O)[C@H]1CC[C@H](C(O)CCCCCC(=O)CCCCC2CC(C(C)=O)C(=O)O2)O1 (stereo partly drawn) ; measured TGI: 26.6
